Test system: LTB4 production in murine blood (LTA4H)
Assay: LTB4 production by calcium ionophore-stimulated murine blood for LTA4H inhibitor activity
Assay type: cell-based, CD-1 mice
Settings: Mus musculus; murine blood diluted 1 in 15, A23187 stimulated; single determination or average; mark after value = form tested: ′ free base, ″ hydrochloride, ^ formate; read-out: IC50
pIC50: −log10 of the molar value. Structures can show the parent of a compound that is named as a salt.
Rule: pIC50 of 7 or more gives rule met; anything lower gives rule not met.

Compound: Fc1ccc2c(c1)CN(Cc1coc3cc(Oc4nc5ncccc5s4)ccc13)C2 [Example 330]
Class: rule not met
--
Compound: c1cnc(OC2CCN(Cc3coc4cc(Oc5nc6ncccc6s5)ccc34)CC2)nc1 [Example 217]
Class: rule met
--
Compound: CC(=O)N1C[C@H]2C[C@@H]1CN2Cc1cc2ncc(Oc3nc4ncccc4s3)cc2o1 [Example 340, formate]
Class: rule not met
--
Compound: CC(=O)NCC1CCN(Cc2coc3cc(Oc4nc5ncccc5s4)ccc23)CC1 [Example 162]
Class: rule met
--
Compound: CC(=O)NC1CCN(Cc2coc3cc(Oc4nc5ccccc5s4)ccc23)CC1 [Example 180]
Class: rule met
--
Compound: NC(=O)N1C[C@H]2CC[C@@H](C1)N2Cc1cc2cc(Oc3nc4ncccc4s3)ccc2o1 [Example 94]
Class: rule not met

---

System: LTB4 production in murine blood (LTA4H)
Assay: LTB4 production by calcium ionophore-stimulated murine blood for LTA4H inhibitor activity
Type: cell-based, CD-1 mice
Conditions: Mus musculus; murine blood diluted 1 in 15, A23187 stimulated; single determination or average; mark after value = form tested: ′ free base, ″ hydrochloride, ^ formate; read-out: IC50
pIC50: −log10 of the molar value. Where a name gives a salt, the structure may show the parent alone.
Binary classification by pIC50, with 7 as an inclusive lower bound for criterion met; all other cases are criterion not met.

Molecule: CC(=O)N[C@H]1C[C@H]2CC[C@@H](C1)N2Cc1c[nH]c2cc(Oc3nc4cccnc4s3)ccc12 [Example 43]
Class: criterion not met

Molecule: CS(=O)(=O)NC1CCN(Cc2coc3cc(Oc4nc5ccccc5s4)ccc23)CC1 [Example 363]
Class: criterion not met

Molecule: c1cnc2nc(Oc3ccc4c(CNC5CCCCC5)coc4c3)sc2c1 [Example 299]
Class: criterion met

Molecule: O=C1CCc2ccccc2N1Cc1coc2cc(Oc3nc4ncccc4s3)ccc12 [Example 397]
Class: criterion not met

Molecule: NC(=O)N1C[C@H]2C[C@@H]1CN2Cc1coc2cc(Oc3nc4ncccc4s3)ccc12 [Example 160]
Class: criterion met

Molecule: CC(=O)N1CCN(CC(=O)NCc2coc3cc(Oc4nc5ncccc5s4)ccc23)CC1 [Example 390]
Class: criterion not met

Molecule: OC1(c2ccc(Br)cc2)CCN(Cc2coc3cc(Oc4nc5ncccc5s4)ccc23)CC1 [Example 348]
Class: criterion not met

Molecule: c1cnc2nc(Oc3ccc4c(CN5CCOCC5)c[nH]c4c3)sc2c1 [Example 40]
Class: criterion met

Molecule: O=C1Cc2ccc(Cl)cc2N1Cc1coc2cc(Oc3nc4ncccc4s3)ccc12 [Example 402]
Class: criterion not met

Molecule: CCOC(=O)C1CCN(Cc2coc3cc(Oc4nc5ncccc5s4)ccc23)CC1 [Example 224]
Class: criterion not met

Molecule: CS(=O)(=O)C1CCN(Cc2c[nH]c3cc(Oc4nc5ccccc5s4)ccc23)CC1 [Example 4]
Class: criterion not met

Molecule: CN(Cc1ccco1)Cc1coc2cc(Oc3nc4ncccc4s3)ccc12 [Example 176]
Class: criterion not met

Molecule: CC(=O)N1C[C@H]2CC[C@@H](C1)N2Cc1cc2cc(Oc3nc4cnccc4s3)ccc2o1 [Example 206]
Class: criterion not met

Molecule: Fc1ccc2sc3c(c2c1)CN(Cc1c[nH]c2cc(Oc4nc5ncccc5s4)ccc12)CC3 [Example 38]
Class: criterion not met

Molecule: c1cnc2nc(Oc3ccc4c(CNC5CC5)coc4c3)sc2c1 [Example 297]
Class: criterion not met

Molecule: NC(=O)N1CC2CN(Cc3cc4ccc(Oc5nc6ncccc6s5)cc4o3)CC2C1 (stereo not drawn) [Example 194]
Class: criterion not met

Molecule: c1ccc2sc(Oc3ccc4c(CN5CCOCC5)coc4c3)nc2c1 [Example 165]
Class: criterion not met

Molecule: c1cnc2nc(Oc3ccc4c(CN5CCC(N6CCOCC6)CC5)coc4c3)sc2c1 [Example 285, formate]
Class: criterion met

Molecule: O=C1Cc2cc(F)ccc2N1Cc1coc2cc(Oc3nc4ncccc4s3)ccc12 [Example 403]
Class: criterion not met

Molecule: CC(=O)N[C@@H]1C[C@H]2CC[C@@H](C1)N2Cc1coc2cc(Oc3nc4ncccc4s3)ccc12 [Example 208]
Class: criterion met

Molecule: CC(C)(C)OC(=O)N1C[C@@H]2C[C@H]1CN2Cc1c[nH]c2cc(Oc3nc4ccccc4s3)ccc12 [Example 147]
Class: criterion not met

---

Tested on: LTB4 production in murine blood (LTA4H)
Assay: LTB4 production by calcium ionophore-stimulated murine blood for LTA4H inhibitor activity
Assay type: cell-based, CD-1 mice
Settings: Mus musculus; murine blood diluted 1 in 15, A23187 stimulated; single determination or average; mark after value = form tested: ′ free base, ″ hydrochloride, ^ formate; read-out: IC50
pIC50: −log10 of the molar value. Counter-ions that a name gives are not always drawn.

Molecule: c1cnc2nc(Oc3ccc4cc(CN5CCCCC5)[nH]c4c3)sc2c1
Experimental system: LTB4 production in murine blood (LTA4H)
pIC50: 7.06

Molecule: O=C1Cc2ccccc2N1Cc1coc2cc(Oc3nc4ncccc4s3)ccc12
Experimental system: LTB4 production in murine blood (LTA4H)
pIC50: 6.52

Molecule: CN(C)Cc1coc2cc(Oc3nc4ncccc4s3)ccc12
Experimental system: LTB4 production in murine blood (LTA4H)
pIC50: 8.00

Molecule: c1cnc2nc(Oc3ccc4oc(CN5C[C@@H]6C[C@H]5CO6)cc4c3)sc2c1
Experimental system: LTB4 production in murine blood (LTA4H)
pIC50: 7.20

Molecule: NC(=O)N[C@H]1C[C@H]2CC[C@@H](C1)N2Cc1cc2ccc(Oc3nc4ncccc4s3)cc2o1
Experimental system: LTB4 production in murine blood (LTA4H)
pIC50: 6.64

Molecule: NC(=O)C1CCN(Cc2c[nH]c3cc(Oc4nc5ccccc5s4)cnc23)CC1
Experimental system: LTB4 production in murine blood (LTA4H)
pIC50: 5.82

Molecule: FC1CCN(Cc2coc3cc(Oc4nc5ncccc5s4)ccc23)CC1 [Example 270, formate]
Experimental system: LTB4 production in murine blood (LTA4H)
pIC50: 7.00

Molecule: CS(=O)(=O)N1CCCN(Cc2coc3cc(Oc4nc5ncccc5s4)ccc23)CC1
Experimental system: LTB4 production in murine blood (LTA4H)
pIC50: 7.62

Molecule: NC(=O)N1C[C@@H]2C[C@H]1CN2C(=O)c1coc2cc(Oc3nc4ncccc4s3)ccc12
Experimental system: LTB4 production in murine blood (LTA4H)
pIC50: 6.21

Molecule: CC(=O)N(CC(=O)O)[C@H]1C[C@H]2CC[C@@H](C1)N2Cc1c[nH]c2ccc(Oc3nc4ccccc4s3)cc12
Experimental system: LTB4 production in murine blood (LTA4H)
pIC50: 5.00

Molecule: O=C(c1coc2cc(Oc3nc4ncccc4s3)ccc12)N1CCC(Oc2ncccn2)CC1
Experimental system: LTB4 production in murine blood (LTA4H)
pIC50: 7.22

Molecule: c1cnc2nc(Oc3ccc4c(CN5CCCC5)coc4c3)sc2c1
Experimental system: LTB4 production in murine blood (LTA4H)
pIC50: 7.92

Molecule: O=c1[nH]ncn1C1CCN(Cc2coc3cc(Oc4nc5ncccc5s4)ccc23)CC1
Experimental system: LTB4 production in murine blood (LTA4H)
pIC50: 7.03

Molecule: Fc1ccc(CNCc2coc3cc(Oc4nc5ncccc5s4)ccc23)cc1
Experimental system: LTB4 production in murine blood (LTA4H)
pIC50: 7.14

Molecule: c1cnc2nc(Oc3ccc4c(CN5CCSCC5)c[nH]c4c3)sc2c1
Experimental system: LTB4 production in murine blood (LTA4H)
pIC50: 7.57

Molecule: CC(=O)N1CCN(CCc2coc3cc(Oc4nc5ncccc5s4)ccc23)CC1
Experimental system: LTB4 production in murine blood (LTA4H)
pIC50: 6.77

Molecule: NC(=O)N1C[C@H]2C[C@@H]1CN2Cc1cc2cc(Oc3nc4ncccc4s3)ccc2o1
Experimental system: LTB4 production in murine blood (LTA4H)
pIC50: 6.69

---

System: LTB4 production in murine blood (LTA4H)
Assay: LTB4 production by calcium ionophore-stimulated murine blood for LTA4H inhibitor activity
Format: cell-based, CD-1 mice
Settings: Mus musculus; murine blood diluted 1 in 15, A23187 stimulated; single determination or average; mark after value = form tested: ′ free base, ″ hydrochloride, ^ formate; read-out: IC50
pIC50: −log10 of the molar value. Where a name gives a salt, the structure may show the parent alone.
pIC50 for assorted compounds
Measurement label: pIC50

Compound: NC(=O)C1CCN(Cc2cc3ccc(Oc4nc5ccccc5s4)cc3[nH]2)CC1 [Example 69]
Recorded value: 5.91
//
Compound: CN1CCN(C(=O)C2CCN(Cc3c[nH]c4cc(Oc5nc6ccccc6s5)ccc34)CC2)CC1 [Example 26]
Recorded value: 6.73
//
Compound: CC(=O)N[C@H]1C[C@H]2CC[C@@H](C1)N2Cc1cc2cc(Oc3nc4c(F)cccc4s3)ccc2o1 [Example 85]
Recorded value: 6.68
//
Compound: CCN(CC)Cc1cc2ccc(Oc3nc4ncccc4s3)cc2o1 [Example 198, formate]
Recorded value: 6.96
//
Compound: CC(=O)N1CCN(Cc2cc3ccc(Oc4nc5ncccc5s4)cc3o2)CC1 [Example 171]
Recorded value: 6.55
//
Compound: CS(=O)(=O)NC1CCN(Cc2coc3cc(Oc4nc5ncccc5s4)ccc23)CC1 [Example 244]
Recorded value: 7.62
//
Compound: O=C(O)C1CCN(Cc2cc3cc(Oc4nc5ccccc5s4)ccc3o2)CC1 [Example 76]
Recorded value: 7.32
//
Compound: CC(=O)N1C[C@H]2C[C@@H]1CN2Cc1cc2cc(Oc3nc4ncccc4s3)ccc2o1 [Example 102]
Recorded value: 6.53
//
Compound: COC(=O)c1ccc(CN2C[C@@H]3C[C@H]2CN3Cc2coc3cc(Oc4nc5ncccc5s4)ccc23)cc1 [Example 360]
Recorded value: 6.46
//
Compound: CC(C)CN1CCN(Cc2coc3cc(Oc4nc5ncccc5s4)ccc23)CC1 [Example 308, formate]
Recorded value: 7.15
//
Compound: CC(=O)N1CCN(Cc2cc3cc(Oc4nc5ncccc5s4)ccc3o2)CC1 [Example 259, formate]
Recorded value: 7.13
//
Compound: c1cnc2nc(Oc3ccc4c(CN5CCCCC5)coc4c3)sc2c1 [Example 212]
Recorded value: 7.72
//
Compound: NC(=O)[C@H]1CCCN(Cc2c[nH]c3cc(Oc4nc5ccccc5s4)ccc23)C1 [Example 27]
Recorded value: 6.87
//
Compound: c1cnc2nc(Oc3ccc4c(CN5CCCC6CCCCC65)coc4c3)sc2c1 (stereo not drawn) [Example 267, formate]
Recorded value: 7.36
//
Compound: COC[C@@H]1CCCN1Cc1coc2cc(Oc3nc4ncccc4s3)ccc12 [Example 186]
Recorded value: 8.22
//
Compound: c1ccc2sc(Oc3ccc4c(CN5C[C@@H]6C[C@H]5CO6)c[nH]c4c3)nc2c1 [Example 12]
Recorded value: 6.60
//
Compound: c1cnc2nc(Oc3ccc4c(CN5CCc6sc7ccccc7c6C5)c[nH]c4c3)sc2c1 [Example 34, formate]
Recorded value: 6.40
//
Compound: O=C(O)CC1CCN(Cc2c[nH]c3cc(Oc4nc5ccccc5s4)ccc23)CC1 [Example 46]
Recorded value: 6.18
//
Compound: CC(=O)NC1CCN(Cc2coc3cc(Oc4nc5ncccc5s4)ccc23)CC1 [Example 197, formate]
Recorded value: 7.82
//
Compound: CC(=O)N1CCC(N(Cc2coc3cc(Oc4nc5ncccc5s4)ccc23)C2CC2)CC1 [Example 238]
Recorded value: 7.36
//
Compound: O=C1CCCCN1C1CCN(Cc2coc3cc(Oc4nc5ncccc5s4)ccc23)CC1 [Example 272, formate]
Recorded value: 7.82
//
Compound: OCC1CCN(Cc2coc3cc(Oc4nc5ncccc5s4)ccc23)CC1 [Example 269]
Recorded value: 7.92
//
Compound: c1ccc2sc(Oc3ccc4c(CN5CC6CNCC6C5)c[nH]c4c3)nc2c1 (stereo not drawn) [Example 51]
Recorded value: 6.74
//
Compound: O=C(NCc1coc2cc(Oc3nc4ncccc4s3)ccc12)C1CCC(O)CC1 (stereo not drawn) [Example 392]
Recorded value: 6.54
//
Compound: NC(=O)N1C[C@@H]2C[C@H]1CN2 [Inter. 17, hydrochloride]
Recorded value: 6.00
//
Compound: CC(=O)N[C@H]1CCN(Cc2coc3cc(Oc4nc5ncccc5s4)ccc23)C1 [Example 310]
Recorded value: 7.44
//
Compound: Clc1ccc2sc3c(c2c1)CCN(Cc1c[nH]c2cc(Oc4nc5ncccc5s4)ccc12)C3 [Example 37, formate]
Recorded value: 6.51
//
Compound: NC(=O)N1CC2CCC(C1)N2C(=O)c1coc2cc(Oc3nc4ncccc4s3)ccc12 [Example 374]
Recorded value: 7.30
//
Compound: c1ccc2sc(Oc3cnc4c(CN5CCCCC5)c[nH]c4c3)nc2c1 [Example 31]
Recorded value: 6.73
//
Compound: CC(=O)N1C[C@@H]2CC[C@H]1CN2Cc1cc2cc(Oc3nc4ncccc4s3)ccc2o1 [Example 169]
Recorded value: 7.64
//
Compound: COc1ccc(N2CCN(Cc3coc4cc(Oc5nc6ncccc6s5)ccc34)CC2)cc1 [Example 290, formate]
Recorded value: 6.77
//
Compound: O=C(c1cnccn1)N1C[C@@H]2C[C@H]1CN2Cc1coc2cc(Oc3nc4ncccc4s3)ccc12 [Example 356]
Recorded value: 6.59
//
Compound: CC(=O)N[C@H]1C[C@H]2CC[C@@H](C1)N2Cc1cc2ccc(Oc3nc4ncccc4s3)cc2[nH]1 [Example 72]
Recorded value: 7.00
